Taken from PubChem BioAssay AID463165.

# testTarget: Regulator of G-protein signaling 4 (Homo sapiens) (UniProt P49798)
# Sequence (P49798 whole entry, looked up): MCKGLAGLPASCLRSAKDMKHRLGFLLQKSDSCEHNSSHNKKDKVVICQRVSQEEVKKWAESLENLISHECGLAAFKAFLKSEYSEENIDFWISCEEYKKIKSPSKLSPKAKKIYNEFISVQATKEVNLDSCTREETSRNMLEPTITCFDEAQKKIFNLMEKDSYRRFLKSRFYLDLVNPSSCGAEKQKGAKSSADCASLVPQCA
# measurementNotes: blockers of RGS4 function in M3R calcium signaling – cell-based, HEK293 M3R inducible RGS4, calcium flux, primary screen (AID 463165);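 further: RGS4 expression induced by doxycycline in cells with stable M3 receptor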
# measurementContext: Fluo-4 calcium flux, at 10 µM, triggered by carbachol at its EC20
Hit rate of the full screen: of about 310,000 compounds, about 1,400 (0.45%) were called active.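 How the source made its calls: active means B-score, a plate-corrected calcium signal, over three deviations above library mean, with baseline fluorescence within five deviations of library mean; inactive means the rest.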 Shown is part of a subset that was picked to be rich in actives.
Respond using exactly one of the listed classes: true (active), false (inactive)

Would you please look over these solved cases?
> print(dat)
                                   compound                                testtarget  labelclass
1  CC(C)(C)OC(=O)CNC(=O)c1[nH]cnc1C(=O)N[C@@H](Cc1ccccc1)C(=O)OCc1ccccc1  Regulator of G-protein signaling 4 (Homo sapiens) (UniProt P49798)       false
2  O=C(C1CCC(=O)N(C2CC2)C1)N1CCN(c2ccc(Cl)cc2)CC1 (stereo not given)  Regulator of G-protein signaling 4 (Homo sapiens) (UniProt P49798)       false
3  COCCNC(=O)C(OC(=O)c1cccs1)c1ccc(F)cc1 (stereo not given)  Regulator of G-protein signaling 4 (Homo sapiens) (UniProt P49798)       false
4  C[C@H](NC(=O)c1nc[nH]c1C(=O)NCC(=O)OC(C)(C)C)c1ccccc1  Regulator of G-protein signaling 4 (Homo sapiens) (UniProt P49798)        true

Request: Any idea what this test logged for O=C(NCc1cccs1)c1ccc(CS(=O)Cc2ccccc2Cl)o1 (stereo not given) ?
Result: false

----------
# testTarget: Regulator of G-protein signaling 4 (Homo sapiens)
# measurementNotes: blockers of RGS4 function in M3R calcium signaling – cell-based, HEK293 M3R inducible RGS4, calcium flux, primary screen (AID 463165);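 further: RGS4 expression induced by doxycycline in cells with stable M3 receptor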
# measurementContext: Fluo-4 calcium flux, at 10 µM, triggered by carbachol at its EC20
Screen size: about 310,000 compounds; about 1,400 (0.45%) were called active.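 Rule for the calls: active = B-score, a plate-corrected calcium signal, over three deviations above library mean, with baseline fluorescence within five deviations of library mean; inactive = the rest.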 Only a selection was taken, and actives are over-represented in it overall.
Response enum: true for active, false for inactive

> print(dat)
                                   molecule                                testtarget  labelclass
1  O=C(/C=C/c1ccc(Cl)c([N+](=O)[O-])c1)c1ccc(O)cc1  Regulator of G-protein signaling 4 (Homo sapiens)        true
2  COc1ccccc1N1CCN(S(=O)(=O)CCNC(=O)c2ccc(OC(C)C)cc2)CC1  Regulator of G-protein signaling 4 (Homo sapiens)       false
3  O=C(/C=C/c1ccc(Cl)c([N+](=O)[O-])c1)c1cccnc1  Regulator of G-protein signaling 4 (Homo sapiens)        true
4  CNCC(O)c1ccc(O)c(O)c1 (configuration not stated)  Regulator of G-protein signaling 4 (Homo sapiens)        true

Request: How was O=C(Nc1cccnc1)c1ccc(Cl)c([N+](=O)[O-])c1 classified in this test?
Result: false

Request: Test call, this molecule: CC(=O)NCC(O)c1ccc([N+](=O)[O-])cc1 (configuration not stated)
Result: false

Request: Hello, I am checking results. What call was entered for CCC(C)c1ccc(O)c(/C=N/O)c1 (configuration not stated) ?
Result: false

----------
# testTarget: Regulator of G-protein signaling 4 (Homo sapiens) (UniProt P49798)
# measurementNotes: blockers of RGS4 function in M3R calcium signaling – cell-based, HEK293 M3R inducible RGS4, calcium flux, primary screen (AID 463165);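 further: RGS4 expression induced by doxycycline in cells with stable M3 receptor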;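 on B-score: B-score is computed from the integrated fluorescence ratio over baseline after carbachol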
# measurementContext: Fluo-4 calcium flux, at 10 µM, triggered by carbachol at its EC20; stronger effect = higher value
Out of some 310,000 compounds screened, about 1,400 (0.45%) were called active. Many of the other results were omitted from the sample, so actives are more common in it than they were.
property: B-score

> print(dat)
                                   molecule                                testtarget  property  reportedmeasurement
1  O=C(OCc1ccc([N+](=O)[O-])cc1)C1CC(=O)N(Cc2ccccc2Cl)C1 (stereo unspecified)  Regulator of G-protein signaling 4 (Homo sapiens) (UniProt P49798)   B-score             inactive
2  O=C1NC(c2ccc(-c3ccccc3[N+](=O)[O-])o2)C(C(=O)c2ccc(Cl)cc2)C(O)(C(F)(F)F)N1 (stereo unspecified)  Regulator of G-protein signaling 4 (Homo sapiens) (UniProt P49798)   B-score        8.35 (active)
3     O=C1NCC(=O)N(Cc2ccccc2)/C1=C/c1ccccc1  Regulator of G-protein signaling 4 (Homo sapiens) (UniProt P49798)   B-score             inactive
4  Cc1ccc(Sc2cc(N3CCOCC3)nc(-c3ccccc3)n2)cc1  Regulator of G-protein signaling 4 (Homo sapiens) (UniProt P49798)   B-score        8.43 (active)
5  O=C1/C(=C\c2cccnc2)CN(Cc2ccccc2)C/C1=C\c1cccnc1  Regulator of G-protein signaling 4 (Homo sapiens) (UniProt P49798)   B-score        20.8 (active)

// for each molecule below, give its B-score
1. COc1ccc2oc(C(=O)OCC(=O)N(CC(C)C)c3c(N)n(Cc4ccccc4)c(=O)[nH]c3=O)c(C)c2c1
2. Nc1nc(-c2ccccc2)cc(-c2ccccc2)n1
3. CC(=O)Nc1ccc(S(=O)(=O)Nc2cccc(NC(=O)C(C)(C)C)c2)cc1
4. Cc1ccccc1OC(=O)Cn1c(C(F)(F)F)nc2ccccc21

Result:
["inactive", "inactive", "inactive", "inactive"]

----------
# testTarget: Regulator of G-protein signaling 4 (Homo sapiens) (UniProt P49798)
# measurementNotes: blockers of RGS4 function in M3R calcium signaling – cell-based, HEK293 M3R inducible RGS4, calcium flux, primary screen (AID 463165);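 further: RGS4 expression induced by doxycycline in cells with stable M3 receptor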
# measurementContext: Fluo-4 calcium flux, at 10 µM, triggered by carbachol at its EC20
Hit rate of the full screen: of about 310,000 compounds, about 1,400 (0.45%) were called active.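 How the source made its calls: active means B-score, a plate-corrected calcium signal, over three deviations above library mean, with baseline fluorescence within five deviations of library mean; inactive means the rest.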 Many of the other results were omitted from the sample, so actives are more common in it than they were.
Lab note: assign the record to one of True for active, False for inactive

Request: Called result for COc1cc(/C=C2/C(=O)NN(c3cccc(Cl)c3)C2=O)cc(Br)c1O
Result: True

----------
# testTarget: Regulator of G-protein signaling 4 (Homo sapiens) (UniProt P49798)
# measurementNotes: blockers of RGS4 function in M3R calcium signaling – cell-based, HEK293 M3R inducible RGS4, calcium flux, primary screen (AID 463165);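 further: RGS4 expression induced by doxycycline in cells with stable M3 receptor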
# measurementContext: Fluo-4 calcium flux, at 10 µM, triggered by carbachol at its EC20
Out of some 310,000 compounds screened, about 1,400 (0.45%) were called active.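 The calls were made as follows: active = B-score, a plate-corrected calcium signal, over three deviations above library mean, with baseline fluorescence within five deviations of library mean; inactive = the rest.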 For the sample, actives were picked, then their nearest neighbours and some compounds at random.
Thanks in advance; please answer with one of these: active, inactive

> print(dat)
                                   compound  labelclass
1  CC1=NN(c2ccc(Cl)c(C(=O)O)c2)C(=O)/C1=C/c1ccc(-c2ccccc2[N+](=O)[O-])o1    inactive
2          CNc1nc(-c2ccccc2)cc(-c2ccccc2)n1    inactive
3      O=C(/C=C/c1ccc(N2CCOCC2)cc1)c1ccccc1    inactive

Request: Which outcome was entered for the compound CCc1ccc(C2C(C#N)=C(N)N(N(C)C)C3=C2C(=O)CCC3)s1 (configuration not stated) in this test?
Result: inactive

Request: Called result for COc1ccc(C)cc1NC(=O)CSc1nnc2ccc(-c3ccccn3)nn12
Result: inactive

Request: Which outcome did this test record for the compound Cc1cccc(N2C(=O)c3ccc(C(=O)Nc4cccc(C(=O)O)c4)cc3C2=O)c1 ?
Result: inactive

Request: Check the results log: what was the call for O=C(c1n[nH]c2c1CCC2)N1CCCC(Nc2cccc(F)c2)C1 (configuration not stated) ?
Result: inactive

Request: Status in this test for COc1cc2c(cc1O)C(SC)=NC(C)(C)C2 ?
Result: active

Request: // return assay outcome for Nc1cccc(-c2cc(-c3ccccc3)nc(-c3cccc(N)c3)n2)c1
Result: active

Request: Answer briefly: the call reported for Cc1ccc(-c2csc(NC(=O)C3=COCCO3)n2)cc1C in this assay.
Result: active

Request: Could you kindly confirm the outcome this assay logged for COC(=O)Cn1cc(/C=C/[N+](=O)[O-])c2ccccc21 ?
Result: active

----------
# testTarget: Regulator of G-protein signaling 4 (Homo sapiens) (UniProt P49798)
# measurementNotes: blockers of RGS4 function in M3R calcium signaling – cell-based, HEK293 M3R inducible RGS4, calcium flux, primary screen (AID 463165);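 further: RGS4 expression induced by doxycycline in cells with stable M3 receptor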
# measurementContext: Fluo-4 calcium flux, at 10 µM, triggered by carbachol at its EC20
About 1,400 (0.45%) of roughly 310,000 compounds were called active.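 How the source made its calls: active means B-score, a plate-corrected calcium signal, over three deviations above library mean, with baseline fluorescence within five deviations of library mean; inactive means the rest.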 The list comes from a sample in which actives are over-represented; it also holds close analogues and randomly drawn compounds.
Hi there, use one of these labels in your reply, thanks! true = active, false = inactive

> print(dat)
                             compound  labelclass
1       CCc1ccc2oc(-c3ccc(N)cc3)nc2c1        true
2     Cc1ccc(N/C=C/C(=O)c2ccccc2)cc1C       false
3  Cc1cccc(C(=O)NC(=S)N(C)C2CCCCC2)c1       false

Request: Test call, this compound: Cc1ccc(/C=N/NC(=O)CSc2ccccn2)o1
Result: false

Request: Which outcome was assigned to COc1cc2c(cc1OC)C(/C=C/c1ccco1)=NCC2 in this test?
Result: false

Request: What is the recorded call for this compound in the test? COc1cc(/C=C2/C(=O)NN(c3ccc(F)cc3)C2=O)cc([N+](=O)[O-])c1O
Result: false

Request: Recorded test call requested for Cc1ccc(N(C(=O)c2ccc(S(=O)(=O)N(C)C)cc2)C2C=CS(=O)(=O)C2)cc1 (stereo not drawn)
Result: false

Request: Short answer needed: outcome of this test for COc1cc(/C=C2\SC(=O)NC2=O)ccc1OCc1ccc(Cl)nc1 ?
Result: false
